Data credit: patent US20130085146A1

# Assay details: Degree of drug incorporation into lipid-drug complex (size-exclusion chromatography)
# Format: physicochemical
# Measurement conditions: drug associated with lipid membranes, pH 7.4
Quick reference for Degree of Lipid Association (% total) among some compounds

Compound | Degree of Lipid Association (% total)
CC(C)(C)NC(=O)[C@@H]1CN(Cc2cccnc2)CCN1C[C@@H](O)C[C@@H](Cc1ccccc1)C(=O)N[C@H]1c2ccccc2C[C@H]1O [Indinavir] | 97.5
CC(C)OC(=O)OCOP(=O)(CO[C@H](C)Cn1cnc2c(N)ncnc21)OCOC(=O)OC(C)C.O=C(O)/C=C/C(=O)O [Viread ®] | 4.2
CC(C)(C)NC(=O)[C@@H]1C[C@@H]2CCCC[C@@H]2CN1C[C@@H](O)[C@H](Cc1ccccc1)NC(=O)[C@H](CC(N)=O)NC(=O)c1ccc2ccccc2n1 [Saquinavir] | 98.8
Cc1c(O)cccc1C(=O)N[C@@H](CSc1ccccc1)[C@H](O)CN1C[C@H]2CCCC[C@H]2C[C@H]1C(=O)NC(C)(C)C (relative stereo) [Nelfinavir] | 100.5

###

# Assay details: Indinavir accumulation in lymph nodes after oral free indinavir
# Format: in vivo, macaques
# Measurement conditions: macaque, inguinal lymph node / plasma, po, 25 mg/kg; read-out: Lymph node to plasma ratio

Substance smiles | Kp at […]
CC(C)(C)NC(=O)[C@@H]1CN(Cc2cccnc2)CCN1C[C@@H](O)C[C@@H](Cc1ccccc1)C(=O)N[C@H]1c2ccccc2C[C@H]1O | 0.03

###

# Assay details: Indinavir accumulation in lymph nodes after oral free indinavir
# Assay type: in vivo, macaques
# Measurement conditions: macaque, axillary lymph node; oral 25 mg/kg in solution; animal 94096; axillary; 3.75 hr

Molecule | concentration at 3.75 hr / ng/mL
CC(C)(C)NC(=O)[C@@H]1CN(Cc2cccnc2)CCN1C[C@@H](O)C[C@@H](Cc1ccccc1)C(=O)N[C@H]1c2ccccc2C[C@H]1O [Indinavir] | 0.141

###

# Assay details: Indinavir accumulation in lymph nodes after oral free indinavir
# Type: in vivo, macaques
# Measurement conditions: macaque, plasma; oral 25 mg/kg in solution; animal 94094; 2 hr

Substance smiles | concentration at 2 hr
CC(C)(C)NC(=O)[C@@H]1CN(Cc2cccnc2)CCN1C[C@@H](O)C[C@@H](Cc1ccccc1)C(=O)N[C@H]1c2ccccc2C[C@H]1O | 5.2 ng/mL

###

# Assay details: Indinavir accumulation in lymph nodes after oral free indinavir
# Format: in vivo, macaques
# Measurement conditions: macaque, plasma; oral 25 mg/kg in solution; animal 94096; 3.75 hr
Test readout: concentration at 3.75 hr (ng/mL)

Substance smiles | Test readout | Recorded measurement
CC(C)(C)NC(=O)[C@@H]1CN(Cc2cccnc2)CCN1C[C@@H](O)C[C@@H](Cc1ccccc1)C(=O)N[C@H]1c2ccccc2C[C@H]1O | concentration at 3.75 hr | 39.8

###

# Assay details: Indinavir accumulation in lymph nodes after oral free indinavir
# Type: in vivo, macaques
# Measurement conditions: macaque, inguinal lymph node / plasma; oral 25 mg/kg; animal 94094; inguinal; 2 hr; read-out: Lymph node to plasma ratio
Test readout: Kp at 2 hr

Substance smiles | Recorded measurement
CC(C)(C)NC(=O)[C@@H]1CN(Cc2cccnc2)CCN1C[C@@H](O)C[C@@H](Cc1ccccc1)C(=O)N[C@H]1c2ccccc2C[C@H]1O | 0.01
